target or test system: T1, cynomolgus monkey GPVI (full-length) expressed on stably transfected CHO cells (cynomolgus monkey, UniProt Q9HCN6 21-339 (human entry))
T1 chain: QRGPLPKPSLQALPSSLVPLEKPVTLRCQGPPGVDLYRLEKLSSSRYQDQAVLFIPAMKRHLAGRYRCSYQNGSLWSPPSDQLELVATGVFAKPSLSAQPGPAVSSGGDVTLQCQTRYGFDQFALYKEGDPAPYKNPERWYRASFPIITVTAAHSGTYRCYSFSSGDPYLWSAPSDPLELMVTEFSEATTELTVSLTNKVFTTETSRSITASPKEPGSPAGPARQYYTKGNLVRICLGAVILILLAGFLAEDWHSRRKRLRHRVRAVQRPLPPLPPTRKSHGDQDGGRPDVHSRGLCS
assay notes: Cell ELISA (MSD) on CHO cells expressing GPVI
observed property: pEC50
In textbook form, pEC50 equals minus log to base ten of the concentration in mol/L.

Form: binder = Reference Control Antibody RefFab #1 (humanized GPVI antibody of WO2011073954A2, SANOFI) (Fab, V domains shown, Cloned into mammalian Fab expression vectors; a glycine-serine linker (G4S)2 was added to the C-terminus of the Fab heavy chain) VH: EVQLLESGPGLVAPSGSLSITCTVSGFSLTGYGVNWVRQPPGKGLEWLGMIWGDGSTDYQSTLKSRLSISKDNSKSQVFLKMNSLRTDDTARYYCARDLPMDYWGLGTSVTVSS VL: DIQMTQSPSSLSASVGGRVTITCKASQDINKYIAWYQHKPGKGPSLLIHYTSTLQPGVPSRFSGSGSGRDYSFSISNLQPEDIATYYCLQYANLLTFGGGTKLEIKR ; pEC50 = 8.68

Form: binder = Fab #4 comprising a modified heavy chain constant region (Fab, V domains shown, Human Fab from the Ylanthia library; produced in HKB11 cells; also called Fab #4 mod; HC) VH: QVQLVQSGAEVKKPGASVKVSCKASGGAFTSSYMHWVRQAPGQGLEWMGIIEPTGASTLYAQRFQGRVTMTRDTSTSTVYMELSSLRSEDTAVYYCARTGIALPLGFDLWGQGTLVTVSS VL: QSVLTQPPSVSAAPGQKVTISCSGSSSNIGNNYVSWYQQLPGTAPKLLIYDNNKRPSGIPDRFSGSKSGTSATLGITGLQTEDEADYYCAAWSTRFRWVFGGGTKLTVLG ; pEC50 = 9.10

Form: binder = Fab #1 comprising a modified heavy chain constant region (Fab, V domains shown, Human Fab from the Ylanthia library; produced in HKB11 cells; also called Fab #1 mod; HC) VH: QVQLVQSGAEVKKPGASVKVSCKASGYTFTSHYMHWVRQAPGQGLEWMGLIEPSEGETEYAQRFQGRVTMTRDTSTSTVYMELSSLRSEDTAVYYCARDSSRSYPLGFDIWGQGTLVTVSS VL: QSVLTQPPSVSAAPGQKVTISCSGSSSNIGNNYVSWYQQLPGTAPKLLIYDNNKRPSGIPDRFSGSKSGTSATLGITGLQTEDEADYYCAAWDFRSSRWVFGGGTKLTVLG ; pEC50 = 9.13
